Biological target: Carbonic anhydrase 1 (Homo sapiens, UniProt P00915)
Sequence (P00915 whole entry): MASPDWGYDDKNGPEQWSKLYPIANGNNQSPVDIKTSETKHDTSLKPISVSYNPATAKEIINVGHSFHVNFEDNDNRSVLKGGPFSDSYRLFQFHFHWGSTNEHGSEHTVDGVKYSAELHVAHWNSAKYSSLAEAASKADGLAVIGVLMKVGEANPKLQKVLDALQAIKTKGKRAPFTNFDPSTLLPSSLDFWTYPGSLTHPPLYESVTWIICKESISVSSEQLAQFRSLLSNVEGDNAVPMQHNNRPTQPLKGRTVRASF
Assay: Inhibition of human recombinant carbonic anhydrase 1-catalyzed CO2 hydration by stopped flow assay
Rule: measured Ki below 300 µM gets satisfied; anything equal to or greater than 300 µM gets not satisfied.

Consider the worked cases shown below.
molecule="S=C(S)S [SODIUM CARBONOTRITHIOATE]" answer_label=satisfied
molecule="O=[Te](=O)(O)O [SODIUM TELLURATE]" answer_label="not satisfied"
molecule="O=S(=O)(O)NS(=O)(=O)O [SODIUM IMINODISULFONATE]" answer_label="not satisfied"

Continue with the molecule presented below.
-- ask For this molecule, is Ki lower than 300 µM? O=[Se](=O)(O)O [SODIUM SELENATE]
-- reply not satisfied

---

Molecular target: Carbonic anhydrase 7 (Homo sapiens)
Sequence (P43166 whole entry): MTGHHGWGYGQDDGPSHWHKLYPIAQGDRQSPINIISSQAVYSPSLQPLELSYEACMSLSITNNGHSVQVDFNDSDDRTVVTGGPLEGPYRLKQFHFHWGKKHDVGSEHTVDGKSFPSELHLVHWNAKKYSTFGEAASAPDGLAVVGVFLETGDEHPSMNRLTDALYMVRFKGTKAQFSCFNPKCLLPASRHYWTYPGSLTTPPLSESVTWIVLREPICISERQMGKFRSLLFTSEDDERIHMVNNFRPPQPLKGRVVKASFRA
Assay: Inhibition of human recombinant carbonic anhydrase 7-catalyzed CO2 hydration by stopped flow assay
EXPERIMENTAL ENDPOINT: Ki (µM)
Give the value, in units of µM, as a plain number.

-- ask Query: Ki; subject: O=[Te](=O)(O)O [SODIUM TELLURATE]
-- reply 460

-- ask Query: Ki; subject: O=P(O)(O)OP(=O)(O)O [SODIUM PYROPHOSPHATE]
-- reply 870

-- ask Query: Ki; subject: N#C[SeH] [SODIUM SELENOCYANATE]
-- reply 1100

-- ask Query: Ki; subject: O=[Se](=O)(O)O [SODIUM SELENATE]
-- reply 215000

-- ask Query: Ki; subject: O=S(=O)(O)NS(=O)(=O)O [SODIUM IMINODISULFONATE]
-- reply 39100

-- ask Query: Ki; subject: S=C(S)S [SODIUM CARBONOTRITHIOATE]
-- reply 36200

-- ask Query: Ki; subject: O=S(=O)(O)OS(=O)(=O)O [SODIUM PYROSULFATE]
-- reply 760

-- ask Query: Ki; subject: O=S(=O)(O)OOS(=O)(=O)O [SODIUM PERSULFATE]
-- reply 3110

-- ask Query: Ki; subject: CCN(CC)C(=S)S [DITIOCARB SODIUM]
-- reply 1470

---

pKi overview
Target: Carbonic anhydrase 13 (Mus musculus)
Sequence (Q9D6N1 whole entry): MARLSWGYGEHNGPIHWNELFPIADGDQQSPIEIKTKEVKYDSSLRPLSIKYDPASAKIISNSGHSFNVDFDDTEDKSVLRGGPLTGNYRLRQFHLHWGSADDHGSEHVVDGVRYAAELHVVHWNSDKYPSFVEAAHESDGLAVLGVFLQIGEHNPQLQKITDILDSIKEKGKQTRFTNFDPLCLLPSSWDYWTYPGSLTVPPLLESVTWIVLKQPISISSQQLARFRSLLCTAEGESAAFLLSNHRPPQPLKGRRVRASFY
Test: Inhibition of mouse recombinant carbonic anhydrase 13-catalyzed CO2 hydration by stopped flow assay
Conceptually, pKi converts a concentration in mol/L into minus its log10.

Past entries and their recorded results:
compound="O=[Te](=O)(O)O [SODIUM TELLURATE]" target_entity="Carbonic anhydrase 13 (Mus musculus)" experimental_value=3.42
compound="O=P(O)(O)OP(=O)(O)O [SODIUM PYROPHOSPHATE]" target_entity="Carbonic anhydrase 13 (Mus musculus)" experimental_value=3.14
compound="N#C[SeH] [SODIUM SELENOCYANATE]" target_entity="Carbonic anhydrase 13 (Mus musculus)" experimental_value=1.58
compound="O=S(=O)(O)OOS(=O)(=O)O [SODIUM PERSULFATE]" target_entity="Carbonic anhydrase 13 (Mus musculus)" experimental_value=2.37
compound="O=S(=O)(O)OS(=O)(=O)O [SODIUM PYROSULFATE]" target_entity="Carbonic anhydrase 13 (Mus musculus)" experimental_value=3.15

-- ask Query: pKi; subject: O=[Se](=O)(O)O [SODIUM SELENATE]
-- reply 0.32

-- ask Query: pKi; subject: O=S(=O)(O)NS(=O)(=O)O [SODIUM IMINODISULFONATE]
-- reply 3.01

-- ask Query: pKi; subject: S=C(S)S [SODIUM CARBONOTRITHIOATE]
-- reply 3.37

-- ask Query: pKi; subject: CCN(CC)C(=S)S [DITIOCARB SODIUM]
-- reply 4.25
